# Method Description: viability of HCT116 without oncogenic beta-catenin – human colon tumor cells, pilot screen (AID 823);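 note: 0% = wells killed by 20 µM Hyamine and 100% = untreated DMSO cell wells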
# Assay Conditions: HCT116 beta-catenin knockout viability, CellTiter-Glo, 60 h; at 10 µM; stronger effect = lower value
Inconclusive results are not listed.
Measurement Type: viability (%)
Return type: number; implicit unit %.

compound=O=C(Nc1ccc(Cl)cn1)c1cccnc1 measurement=63
compound="Cc1ccc(C(=O)NC(Cc2c[nH]c3ccccc23)C(=O)O)o1 (configuration not stated)" measurement=96.2
compound=Cc1cc(C(=O)Nc2cccnc2)on1 measurement=103
compound=COc1ccc(C/C(N)=N/n2cnnc2)cc1Cl measurement=95.7
compound=CC(C)(C)SCCNC(=O)COc1ccc(Cl)cc1 measurement=96.2
compound=Cn1c(NC(=O)c2ccccc2F)cc(=O)n(C)c1=O measurement=101

Per the record, COc1ccc(NC(=O)c2c(-c3ccccc3)noc2C)c(OC)c1 has viability of 97.4

Per the record, Cc1ccnc(SCCn2c(N3CCC(C)CC3)nc3c2c(=O)[nH]c(=O)n3C)n1 has viability of 106

Per the record, COc1ccc(-c2nc(C#N)c(NCCCN3CCOCC3)o2)cc1 has viability of 103
